Readings of TGI for the listed compounds
- System: MDA-MB-231 breast
- protocol-description: NCI tumour cell line growth inhibition, 48 h

{"compound": "COc1cc2oc(=O)cc(C)c2cc1O", "value-kind": "TGI", "result": "> 100 µM"}

## Input Need TGI, item `C(=N\Nc1ccc(-c2nc3ccccc3[nH]2)cc1)/c1c(-c2ccc(Cc3ccccc3)cc2)[nH]c2ccccc12`
## Output 60.6 µM

## Input Could you tell me which TGI is on file for CCOC(=O)c1c(-c2ccc(Cl)cc2)c(C#N)c(=S)n(C2OC(COC(C)=O)C(OC(C)=O)C(OC(C)=O)C2OC(C)=O)c1-c1ccccc1 (stereo not given) ?
## Output > 100 µM

## Input Please give the measured TGI for this compound: `COC(=O)[C@H]1NC(=O)CCSSC1(C)C`
## Output > 100 µM

## Input # query: TGI of entry Cc1ccc(NC(=O)C(Cc2c[nH]c3ccccc23)NC(=O)Oc2ccccc2)cc1C (stereo not given)
## Output > 100 µM
